Entries annotated with measured inhibition of aggregation
assay: reduction of polyQ htt aggregates in cells – imaging, exon1htt(103Q)mCFP cells, high-content imaging, primary screen (AID 483); conditions: exon1htt(103Q)mCFP cell line, aggregate imaging, at 2 µM; active compounds read high;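 also: compound exposure lasted 3 days before fixation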
The response must be a number in % with no trailing unit.

[[record]]
compound = "COc1ccc(C(=O)CN2C(=O)NC3(CCCc4ccccc43)C2=O)cc1OC (configuration not stated)"
readout_kind = "inhibition of aggregation"
unit_text = "%"
reported_result = 2.7

[[record]]
compound = "Oc1cccc(Nc2nc(NCC3CCCO3)c3ccccc3n2)c1 (configuration not stated)"
readout_kind = "inhibition of aggregation"
unit_text = "%"
reported_result = -4.4

[[record]]
compound = "Cn1nc(C(=O)Nc2cccc(C(F)(F)F)c2)ccc1=O"
readout_kind = "inhibition of aggregation"
unit_text = "%"
reported_result = -1.2

[[record]]
compound = "CCCSc1nnc2nc3c(nn12)c1ccccc1n3C"
readout_kind = "inhibition of aggregation"
unit_text = "%"
reported_result = -6.3

[[record]]
compound = "COc1ccc(-c2cc(C(=O)NCc3ccc(Cl)cc3)no2)cc1OC"
readout_kind = "inhibition of aggregation"
unit_text = "%"
reported_result = -5.6

[[record]]
compound = "COC(=O)C(F)(F)Sc1c(C)[nH]c2ccccc12"
readout_kind = "inhibition of aggregation"
unit_text = "%"
reported_result = 13.7

[[record]]
compound = "Fc1cccc(-c2cc3nc4c(c(N5CCN(c6cnccn6)CC5)n3n2)CCCC4)c1"
readout_kind = "inhibition of aggregation"
unit_text = "%"
reported_result = -5.2

[[record]]
compound = "O=S(=O)(NC1=NCCC1)c1cccs1"
readout_kind = "inhibition of aggregation"
unit_text = "%"
reported_result = 11

[[record]]
compound = "CCOC(=O)C1CCCN(C(=O)c2ccc3c(=O)n(CCOC)c(=S)[nH]c3c2)C1 (configuration not stated)"
readout_kind = "inhibition of aggregation"
unit_text = "%"
reported_result = -2.5

[[record]]
compound = "C(/CCc1ccccc1)=N\\n1cnnc1"
readout_kind = "inhibition of aggregation"
unit_text = "%"
reported_result = -7


Quick one: inhibition of aggregation of CCN1C(=O)/C(=C/N(C)c2ccccc2)OC1=S ?
12.1

Quick one: inhibition of aggregation of CSc1cccc(NC(=O)CN(C)S(=O)(=O)c2ccccc2)c1 ?
-0.4

Quick one: inhibition of aggregation of CCOCCn1c(CN2CCC(Cc3ccccc3)CC2)nc2c1c(=O)n(C)c(=O)n2C ?
25.3
